Ref: patent US10988477B2

- target.under.test: intracellular GCN2 (phosphorylation of the GCN2 substrate eIF2α) (Homo sapiens, UniProt Q9P2K8)
- Sequence (Q9P2K8 whole entry): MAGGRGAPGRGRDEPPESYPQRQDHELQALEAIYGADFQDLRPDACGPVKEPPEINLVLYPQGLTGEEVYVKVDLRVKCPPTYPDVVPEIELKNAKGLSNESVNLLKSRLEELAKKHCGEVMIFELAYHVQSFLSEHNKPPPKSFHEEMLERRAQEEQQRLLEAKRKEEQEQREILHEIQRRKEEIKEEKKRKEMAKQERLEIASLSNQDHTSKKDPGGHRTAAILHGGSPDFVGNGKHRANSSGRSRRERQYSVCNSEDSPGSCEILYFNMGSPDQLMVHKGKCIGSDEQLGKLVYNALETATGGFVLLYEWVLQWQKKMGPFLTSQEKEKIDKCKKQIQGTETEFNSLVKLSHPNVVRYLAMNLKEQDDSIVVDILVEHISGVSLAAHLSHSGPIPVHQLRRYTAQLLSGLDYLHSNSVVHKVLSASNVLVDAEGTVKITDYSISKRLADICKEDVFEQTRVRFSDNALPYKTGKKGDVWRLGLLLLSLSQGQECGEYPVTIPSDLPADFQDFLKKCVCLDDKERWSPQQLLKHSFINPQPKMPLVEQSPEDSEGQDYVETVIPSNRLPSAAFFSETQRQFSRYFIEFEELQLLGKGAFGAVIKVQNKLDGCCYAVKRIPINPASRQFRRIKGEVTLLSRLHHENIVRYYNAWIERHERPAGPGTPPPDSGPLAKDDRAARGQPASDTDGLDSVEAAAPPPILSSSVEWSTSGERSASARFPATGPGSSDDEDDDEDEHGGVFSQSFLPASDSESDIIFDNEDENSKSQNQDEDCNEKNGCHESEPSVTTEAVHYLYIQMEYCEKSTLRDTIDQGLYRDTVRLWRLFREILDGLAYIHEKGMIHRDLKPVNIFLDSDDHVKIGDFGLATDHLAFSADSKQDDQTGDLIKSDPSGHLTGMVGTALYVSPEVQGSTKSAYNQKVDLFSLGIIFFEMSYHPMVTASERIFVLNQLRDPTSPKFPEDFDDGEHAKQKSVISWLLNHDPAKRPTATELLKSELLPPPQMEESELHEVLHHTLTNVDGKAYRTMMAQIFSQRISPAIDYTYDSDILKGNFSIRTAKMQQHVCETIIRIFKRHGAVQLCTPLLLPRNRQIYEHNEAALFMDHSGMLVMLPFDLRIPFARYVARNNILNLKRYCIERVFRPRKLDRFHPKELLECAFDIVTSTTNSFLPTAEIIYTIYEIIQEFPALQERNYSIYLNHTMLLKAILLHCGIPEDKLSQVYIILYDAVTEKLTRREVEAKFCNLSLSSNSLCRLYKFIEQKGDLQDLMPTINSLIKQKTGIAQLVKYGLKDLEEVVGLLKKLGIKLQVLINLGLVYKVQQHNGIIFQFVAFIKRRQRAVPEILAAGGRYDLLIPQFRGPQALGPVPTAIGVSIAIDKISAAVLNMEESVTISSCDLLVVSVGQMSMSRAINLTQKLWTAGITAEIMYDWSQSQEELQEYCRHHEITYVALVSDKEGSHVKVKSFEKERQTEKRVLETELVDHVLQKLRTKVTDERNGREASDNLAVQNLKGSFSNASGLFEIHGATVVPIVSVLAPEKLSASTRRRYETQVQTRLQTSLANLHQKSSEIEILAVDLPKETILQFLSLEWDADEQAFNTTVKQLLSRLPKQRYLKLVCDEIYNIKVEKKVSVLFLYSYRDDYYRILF
- protocol.notes: GCN2 cellular inhibition assay (AlphaScreen SureFire P-eIF2α Ser51, borrelidin-treated U2OS cells)
- Type: cell-based
- condition.info: compounds of Formula II; biomarker assay, phosphorylated eIF2α Ser51 in borrelidin-treated U2OS cells
readout: IC50

For this compound ( CS(=O)(=O)NCC1CN(c2cc(-c3cnc4ccc(C(F)F)nn34)ccn2)CCO1 (stereo not shown) ), measured IC50 is < 500 nM

----------
A collection of compounds and their measured pIC50
- target.under.test: intracellular GCN2 (phosphorylation of the GCN2 substrate eIF2α) (Homo sapiens, UniProt Q9P2K8)
- protocol.notes: GCN2 cellular inhibition assay (AlphaScreen SureFire P-eIF2α Ser51, borrelidin-treated U2OS cells)
- Type: cell-based
- condition.info: compounds of Formula II; biomarker assay, phosphorylated eIF2α Ser51 in borrelidin-treated U2OS cells
pIC50: −log10 of the molar value.

{"compound": "COC1CCN(c2cc(-c3cnc4ccc(C(F)F)nn34)ncn2)CC1CNS(C)(=O)=O (centres unmarked) [II-390]", "readout": "pIC50", "val": "> 6.30"}
{"compound": "CNS(=O)(=O)NCC1CN(c2cc(-c3cnc4ccc(C(F)F)nn34)ncn2)CCO1 (centres unmarked) [II-386]", "readout": "pIC50", "val": "> 6.30"}
{"compound": "NS(=O)(=O)N1CC2(CCCN(c3cc(-c4cnc5ccc(C(F)F)nn45)ncn3)C2)C1 [II-333]", "readout": "pIC50", "val": "5.30 to 6.30"}

Now for another entry.
In plain terms, CN1CCN(c2cc(-c3cnc4ccc(C(F)F)nn34)ncn2)CC12CN(S(C)(=O)=O)C2 [II-452] has a documented pIC50 of 5.30 to 6.30
